System: SW-620 colon
Assay: NCI-60 one-dose screen, 48 h
Conditions: 10 µM
About 83,000 compounds went through this panel and 20% of them were active in at least one assay; those are over-represented in the sample as a whole. Active and inactive are the calls of the source. Rule for the calls: active = growth percent below 10; inactive = the rest.
Classes used: 1.0 for active, 0.0 for inactive

INSERT INTO measurements (compound, group) VALUES
  ('CCCCCCCCCCCCCCCCCCCC(=O)NCCc1c[nH]c2ccc(OC(=O)CCCC(=O)OCCOOCCOOCCOOCCOOCCOOCCOOCCOOCCOOCCOOCCOOCCOOCCOC)cc12', 0.0),
  ('CC1=C(C(=O)OC(C)C)C(c2ccc(O)cc2)NC(=S)N1 (centres undefined)', 0.0),
  ('O=C1Nc2ccc(Cl)cc2/C1=C/c1ccc(OCc2ccc(Br)cc2F)cc1', 0.0),
  ('COc1cnc2c(c1)C(=O)c1c-2n(CCCNC(C)C)c(=O)c2cc(OC)c(OC)cc12', 1.0),
  ('N#Cc1c(-c2ccc(Cl)cc2)cc(-c2ccccc2)nc1OCc1ccccc1', 0.0),
  ('Cc1cccc2cc(-c3cc(-c4ccccc4)nc(=O)[nH]3)c(Cl)nc12', 0.0),
  ('O=C(N/N=C/c1ccc(-c2cccc([N+](=O)[O-])c2)o1)c1[nH]c2ccc(Br)cc2c1-c1ccccc1', 0.0),
  ('O=c1c2ccccc2nc(COc2ccccc2)n1/N=C/c1ccc(F)cc1', 0.0),
  ('C/C(=C\CSc1ccccc1C(=O)O)CCCC(C)CCCC(C)CCCC(C)C (centres undefined)', 0.0);

* * *

Tested on: K-562 leukemia
Test: NCI-60 one-dose screen, 48 h (100 = growth as untreated, 0 = no growth, -100 = all killed)
Conditions: 10 µM
Compounds without any hit were thinned out: in the full panel of roughly 83,000, 20% have a hit.
valueKind: growth (%)

INSERT INTO results (molecule, outputunit, reading) VALUES
  ('Cc1cc(=O)oc2cc(OCCCCOc3ccc(/C=C/C(=O)Nc4ccc(F)c(Cl)c4)cc3)ccc12', '%', 88),
  ('COc1cc(NC(=O)c2cc(-c3ccc(F)cc3F)ccc2O)cc(OC)c1OC', '%', 14),
  ('CN1C(=O)/C(=C/c2ccc3ncsc3c2)NC1=NC12CC3CC(CC(O)(C3)C1)C2', '%', 11.9),
  ('CN1CCN(Cc2ccc(NC(=O)c3cncc(C#Cc4cnc5ccc(N[C@H]6CCOC6)nn45)c3)cc2C(F)(F)F)CC1', '%', 0.651),
  ('CN(C)CCNC(=O)OCCCCOc1cc(O)c2c(=O)cc(-c3ccccc3)oc2c1', '%', 8.72),
  ('Clc1ccc2c(N/N=C/c3c[nH]c4ccc(Br)cc34)ccnc2c1', '%', -25.5),
  ('CC[C@]12C=CCN3CC[C@@]4(c5cc(C#CCNc6ccc(C)c(Nc7nccc(-c8cccnc8)n7)c6)c(OC)cc5N(C)[C@H]4[C@@](O)(C(=O)OC)[C@@H]1OC(C)=O)C32 (stereo partly specified)', '%', 35.1),
  ('O=c1nc(-c2ccccc2)cc(-c2cc3ccccc3nc2Cl)[nH]1', '%', -11.9),
  ('CN1C(=O)N(C)C2SC(N/N=C/C=C/c3ccccc3)=NC21 (stereo unspecified)', '%', 25.3),
  ('O=C(Cn1nc(-c2ccccc2)ccc1=O)NNC(=S)NC1CCCCC1', '%', 90.4),
  ('COc1ccc(C(=O)CSc2nnc(-c3c[nH]c4ccccc34)n2-c2ccccc2)cc1', '%', 58.2),
  ('CN(C)c1ccc(/C=C/c2nc3ccccc3c(=O)n2CC(=O)Nc2ccc(Cl)cc2)cc1', '%', 68.7),
  ('OCCNc1oc(-c2ccccc2)nc1[P+](c1ccccc1)(c1ccccc1)c1ccccc1', '%', 11.2),
  ('O=c1c2ccccc2nc(COc2ccccc2)n1/N=C/c1ccc(N2CCCC2)cc1', '%', 73.4),
  ('Cc1ccc(-c2nc(Nc3ccc(S(N)(=O)=O)cc3)c3ccccc3n2)cc1', '%', 6.36),
  ('C#CCNC(=O)CCC(=O)OC[C@]12CC[C@@H](C(=C)C)[C@@H]1C1CC[C@@H]3[C@@]4(C)CCCNC(C)(C)[C@@H]4CC[C@@]3(C)[C@]1(C)CC2 (stereo partly specified)', '%', 3.14),
  ('CS(=O)(=O)Nc1ccc(-c2ccc3c(c2)ncn3-c2ccc(NC(=O)Nc3ccc(Cl)c(C(F)(F)F)c3)cc2)cc1', '%', -26),
  ('Cc1ccc(/C=C/C(=O)c2ccc(S(=O)(=O)NCCNc3nc(Nc4ccc(F)cc4)nc(N(C)C)n3)cc2)cc1', '%', 12.2),
  ('Oc1ccc(/C=C2\CCCc3cc4ccc(O)cc4[o+]c32)c(O)c1', '%', 41.5),
  ('COc1ccc(C(=O)/C=C/c2ccc(Cl)c(C(F)(F)F)c2)cc1S(N)(=O)=O', '%', 5.18),
  ('O=C(N=Nc1c(O)[nH]c2ccc(Br)cc12)c1ccc2nc(-c3ccccc3)[nH]c2c1', '%', 1.09),
  ('Cc1cc2nc3c4ccccc4n(CCO)c3nc2cc1C', '%', 74.4),
  ('COC[C@@H](CC(C)C)N=C1N/C(=C\c2ccc3ncsc3c2)C(=O)N1C', '%', 17.7),
  ('O/N=C(\CSc1nnc(-c2c[nH]c3ccccc23)n1-c1ccccc1)c1ccc(Cl)cc1', '%', 6.93),
  ('O=c1c2ccccc2nc(COc2ccccc2)n1/N=C/c1ccc(N2CCOCC2)cc1', '%', 103),
  ('O=S(=O)(Nc1ncccn1)c1ccc(-n2c(-c3ccccc3)nc(-c3ccccc3)c2-c2ccccc2)cc1', '%', 92.6),
  ('COc1ccccc1[C@H]1C(C(=O)c2ccc(Cl)cc2)C2(N[C@@H]1c1ccccc1)C(=O)Nc1ccc(Cl)cc12 (stereo partly specified)', '%', 1.21),
  ('Cc1ccc2nc(-c3ccc(-c4nnc(SCC(=O)Nc5ccc(Br)cc5)o4)cc3)[nH]c2c1', '%', 7.89),
  ('CCCn1c(=O)c2[nH]c(-c3ccc(OCc4nc5ccc(C#N)cc5[nH]4)cc3)nc2n(CCC)c1=O', '%', 41.6),
  ('COc1cccc(-c2ccnc(/N=C(\N)Nc3ccc(S(=O)(=O)Nc4nc(C)cc(C)n4)cc3)n2)c1', '%', 92),
  ('O=c1[nH]c2ccccc2cc1CSc1ccc(Nc2nccc(-c3ccc(Cl)cc3)n2)cc1', '%', 36.2),
  ('CCCCCCCCCCCCCCCCCCCC(=O)NCCc1c[nH]c2ccc(O)cc12', '%', 74.5),
  ('CN1CCN(c2ccc(C(=O)/C=C/c3cc(C(F)(F)F)ccc3Cl)cc2)CC1', '%', 2.76),
  ('Cc1cccc2cc(-c3cc(-c4ccccc4)nc(=S)[nH]3)c(Cl)nc12', '%', 38),
  ('Cn1cc(-c2cc(N)n3nc(-c4c[nH]c5ccc(Br)cc45)cc3n2)c2cc(Br)cnc21', '%', -27.4),
  ('O=C(Nc1cccc(C(F)(F)F)c1)c1cncc(C#Cc2cnc3ccc(N4CCOCC4)nn23)c1', '%', 9.1);
